Attribution: PubChem BioAssay (Tox21)

test: qHTS assay to identify small molecule antagonists of the sonic hedgehog signaling (Shh) pathway - cell viability counter screen (AID 1259367); details: NIH/3T3 Gli1-Luc viability, CellTiter-Fluor, 24 h; series mostly up to 92.4 µM; also: % is scaled to controls: 0 for no effect and ±100 for the full control effect; nearly all actives have a fitted effect of over 55% in size
Records with an inconclusive call do not appear. Calls of active or inactive are those of the source. Calls follow the shape of the dose curve; as a rule, active = well fitted cell-killing curve with a large enough effect in the repeat runs; inconclusive = weak or mixed curves, or effect the other way; inactive = no such curve, though single readings can be large or run the other way.

{"columns": ["compound", "viability change, negative = cytotoxic"],
 "data": [
  ["CCCCCCC(=O)CCCCCC/C=C/C[C@@H](O)[C@H](O)[C@@](N)(CO)C(=O)O", "-0.502% [at 19 µM] (inactive)"],
  ["ClCCCCCCCl", "inactive"],
  ["C[C@H](N)C(=O)c1ccccc1", "inactive"],
  ["Cc1ccc(Cl)c(O)c1", "inactive"],
  ["O=C(Cl)/C=C/C(=O)Cl", "inactive"],
  ["CC(C)(O)C(Cl)(Cl)Cl", "inactive"],
  ["CON(C)C(=O)Nc1ccc(Br)cc1", "inactive"],
  ["CC(C)c1ccc(O)cc1", "inactive"],
  ["O=[N+]([O-])CCO", "inactive"],
  ["CCOP(=O)(CN(CCO)CCO)OCC", "inactive"],
  ["CCOP(=S)(OCC)Oc1ccc(Cl)cc1Cl", "inactive"],
  ["CCN[C@@H](C)Cc1ccccc1", "inactive"],
  ["C1CN2CCC1CC2", "inactive"],
  ["CC(C)(C)NC[C@H](O)c1ccc(O)cc1Cl", "inactive"],
  ["CCOC(=O)CCl", "inactive"],
  ["CCCC(C)(COC(N)=O)COC(N)=O", "inactive"],
  ["C=CCCC#N", "inactive"],
  ["COC(=O)c1ccccc1CS(=O)(=O)NC(=O)Nc1nc(OC)cc(OC)n1", "inactive"],
  ["CCNP(=S)(OC)O/C(C)=C/C(=O)OC(C)C (stereo unspecified)", "inactive"],
  ["CN(C)C1CCCCC1", "inactive"],
  ["O=P(O)(O)CN(CP(=O)(O)O)CP(=O)(O)O", "inactive"],
  ["CCCCOC(C)=O", "inactive"],
  ["BrCCc1ccccc1", "inactive"],
  ["COC1=CC(=O)O[C@@H](/C=C/c2ccccc2)C1", "inactive"],
  ["CC(Cl)(Cl)Cl", "inactive"],
  ["CNC(=O)NC(O)C(Cl)(Cl)Cl (stereo unspecified)", "inactive"],
  ["C[C@@H](N)[C@@H](O)c1ccccc1", "inactive"],
  ["CCOC(=O)Nc1cccc(OC(=O)Nc2ccccc2)c1", "inactive"],
  ["Cl/C=C/CCl", "inactive"],
  ["C=C1C[C@@H]2[C@H](CC[C@]3(C)C(=O)CC[C@@H]23)[C@@]2(C)C=CC(=O)C=C12", "inactive"],
  ["CCC(C)(C#N)N=NC(C)(C#N)CC (stereo unspecified)", "inactive"]
]}

* * *

test: qHTS assay to identify small molecule agonists of the TGF-beta/Smad signaling pathway (AID 1346859); conditions: SBE-bla HEK293T, TGF-beta/Smad beta-lactamase reporter, 5 h; series mostly up to 76.8 µM; also: % is scaled to controls: 0 for no effect and ±100 for the full control effect
Results filed as inconclusive are left out. The source made the active and inactive calls. Calls come from the whole dose curve; as a rule, active = well fitted activation curve with a large enough effect in the signal ratio in the repeat runs (not every such curve was filed as active); inconclusive = weak or mixed curves; inactive = flat fitted curve, though single readings scatter; the % refers to the signal ratio.

{"columns": ["molecule", "activation"],
 "data": [
  ["C=CC=O", "inactive"],
  ["CCOC(=O)CC(SP(=S)(OC)OC)C(=O)OCC (stereo not given)", "inactive"],
  ["Cc1cccc2sc3nncn3c12", "inactive"],
  ["COC(=O)c1ccccc1CS(=O)(=O)NC(=O)Nc1nc(OC)cc(OC)n1", "inactive"],
  ["COc1cccc([C@@]2(O)CCCC[C@@H]2CN(C)C)c1", "inactive"],
  ["NCCOS(=O)(=O)O", "inactive"],
  ["CC[C@H](N)c1ccccc1", "inactive"],
  ["O=C(Cl)c1ccccc1", "inactive"],
  ["CCN1CCCC1CNC(=O)C(O)(c1ccccc1)c1ccccc1 (stereo not given)", "inactive"],
  ["CCOC(=O)c1ncn2c1CN(C)C(=O)c1c(I)cccc1-2", "inactive"],
  ["N=C(N)[Se]", "inactive"],
  ["CC(=O)CN(CC(C)=O)N=O", "inactive"],
  ["C[C@]12C=CC(=O)C=C1CC[C@@H]1[C@@H]2CC[C@@]2(C)[C@H]1CC[C@]2(C)O", "inactive"],
  ["CCC(=O)c1ccc(Cl)cc1", "inactive"],
  ["CC(C)(O)C(Cl)(Cl)Cl", "inactive"],
  ["O=c1[nH]c2ccccc2o1", "inactive"],
  ["CCC1(CC)C(=O)C=CNC1=O", "inactive"],
  ["CC(C)(C1CCC(O)CC1)C1CCC(O)CC1 (stereo not given)", "inactive"],
  ["CC(C)[C@]12CC(=O)[C@H](C)[C@H]1C2", "inactive"],
  ["Cc1ccc2c(c1)C1CN(C)CCC1N2 (stereo not given)", "3.74% [at 15.8 µM] (inactive)"],
  ["ClC1=C(Cl)C2(Cl)C(CBr)CC1(Cl)C2(Cl)Cl (stereo not given)", "inactive"],
  ["O=C/C=C/c1ccco1", "inactive"],
  ["CC(Cl)(Cl)Cl", "inactive"],
  ["O=C(CCl)NCO", "inactive"],
  ["CS(=O)(=O)Cl", "inactive"],
  ["N#CN", "inactive"],
  ["CN(C)C(=O)Oc1cc(OC(=O)N(C)C)cc(C(O)CNC(C)(C)C)c1 (stereo not given)", "inactive"],
  ["O=C(Cl)C(Cl)Cl", "inactive"],
  ["CCc1cc(OC)c(C[C@H](C)N)cc1OC", "inactive"],
  ["CCOP(=O)(CN(CCO)CCO)OCC", "inactive"],
  ["CCOC(=O)Nc1cccc(OC(=O)Nc2ccccc2)c1", "inactive"],
  ["BrCCc1ccccc1", "inactive"],
  ["CCNc1nc(Cl)nc(NC(C)(C)C)n1", "inactive"],
  ["Cn1c(CCCC(=O)O)nc2cc(N(CCCl)CCCl)ccc21", "inactive"],
  ["N[C@@H](Cc1ccc(Oc2cc(I)c(O)c(I)c2)c(I)c1)C(=O)O", "inactive"],
  ["C=CCN1CC[C@]23CCCC[C@H]2[C@H]1Cc1ccc(O)cc13", "inactive"],
  ["CCC(C)(C#N)N=NC(C)(C#N)CC (stereo not given)", "inactive"],
  ["O=[N+]([O-])CCO", "inactive"],
  ["[P]#[In]", "inactive"],
  ["NNCc1ccccc1", "inactive"],
  ["CC(C)(C)c1cc(O)ccc1O", "inactive"],
  ["COc1ccc2c(C(=O)c3ccc(Cl)cc3)c(C)n(CC(=O)O)c2c1", "inactive"],
  ["COc1ccc(CN2CCNCC2)c(OC)c1OC", "inactive"],
  ["CCN(CC)CCOC(=O)C(O)(c1ccccc1)c1ccccc1", "inactive"],
  ["Oc1ccc(Cc2ccc(O)cc2)cc1", "inactive"],
  ["C/C(=N\\NC(=O)Nc1cc(F)cc(F)c1)c1ncccc1C(=O)O", "inactive"],
  ["CC1NCCOC1c1ccccc1 (stereo not given)", "inactive"],
  ["CC(C)(N)Cc1ccccc1Cl", "inactive"],
  ["CN1COCN(Cc2cnc(Cl)s2)/C1=N\\[N+](=O)[O-]", "inactive"],
  ["C[C@H](N)C(=O)c1ccccc1", "inactive"],
  ["N[C@@H]1C[C@H]1c1ccccc1", "inactive"],
  ["O=C(O)C(F)(F)C(F)(F)C(F)(F)C(F)(F)C(F)(F)C(F)(F)F", "inactive"],
  ["CC(C)(N)Cc1ccc(Cl)cc1", "inactive"],
  ["C=CC1(C)OC(=O)N(c2cc(Cl)cc(Cl)c2)C1=O (stereo not given)", "inactive"],
  ["CCNc1nc(NCC)nc(SC)n1", "inactive"],
  ["COc1cc(CCN)cc(OC)c1OC", "inactive"],
  ["Cc1cc(OC(=O)N(C)C)nn1C(=O)N(C)C", "inactive"],
  ["CCC(C(N)=O)N1CCCC1=O (stereo not given)", "inactive"],
  ["CNC(=O)NC(O)C(Cl)(Cl)Cl (stereo not given)", "inactive"],
  ["COP(=O)(O)OC", "inactive"]
]}

* * *

assay: qHTS assay to identify small molecule antagonists of the estrogen receptor alpha (ER-alpha) signaling pathway using the BG1 cell line (AID 743080); details: BG1Luc4E2 ERE-luciferase antagonist mode, luminescence; series mostly up to 70.3 µM;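 also: BG1 cells stimulated with 17beta-estradiol alongside compound; nearly all actives have a fitted effect of over 25% in size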
Records with an inconclusive call do not appear. Activity calls are given as the source filed them. Calls come from the whole dose curve.
Classes used: 1 = active, -1 = inactive

{"columns": ["molecule", "class.label"],
 "data": [
  ["CN(CCO)CCO", -1],
  ["C=CCCC#N", -1],
  ["CCOC(=O)CC(SP(=S)(OC)OC)C(=O)OCC (configuration not stated)", -1],
  ["C[C@H](N)C(=O)c1ccccc1", -1],
  ["CCOC(=O)NC(C)(C)Cc1ccc(Cl)cc1", -1],
  ["C[C@H]1CCCC(=O)CCC/C=C/c2cc(O)cc(O)c2C(=O)O1", 1],
  ["CCCCCCCC(=O)Cl", -1],
  ["CCCC[N+](=O)[O-]", -1],
  ["CC(O)CCl (configuration not stated)", -1],
  ["OCC(Cl)CCl (configuration not stated)", -1],
  ["CCCCCCC(=O)CCCCCC/C=C/C[C@@H](O)[C@H](O)[C@@](N)(CO)C(=O)O", -1],
  ["CCOP(=S)(OCC)SCCl", -1],
  ["CCN(CC)CCOC(=O)C(O)(c1ccccc1)c1ccccc1", -1],
  ["O=[N+]([O-])CCO", -1],
  ["ClC(Cl)(Cl)Cl", -1],
  ["C(COCC1CO1)OCC1CO1 (configuration not stated)", -1],
  ["NC1(c2ccccc2)CCCCC1", -1],
  ["BrCC1CO1 (configuration not stated)", -1],
  ["O=P(O)(O)CN(CP(=O)(O)O)CP(=O)(O)O", -1],
  ["CNC(=O)O/N=C(/CSC)C(C)(C)C", -1],
  ["CCOP(=S)(OCC)Oc1ccc(Cl)cc1Cl", -1],
  ["CNC(=O)Oc1ccccc1C(C)C", -1],
  ["CCC(C(N)=O)N1CCCC1=O (configuration not stated)", -1],
  ["CCN[C@@H](C)Cc1ccccc1", -1],
  ["COP(=O)(O)OC", -1],
  ["CS(=O)(=O)Cl", -1],
  ["S=C=S", -1],
  ["COC(=O)c1ccccc1CS(=O)(=O)NC(=O)Nc1nc(OC)cc(OC)n1", -1],
  ["O=C(CCl)NCO", -1],
  ["CC(C)[N+](C)(CCC(C(N)=O)(c1ccccc1)c1ccccc1)C(C)C", -1],
  ["Cc1cc(OC(=O)N(C)C)nn1C(=O)N(C)C", -1],
  ["O=c1[nH]oc2c1CCNC2", -1]
]}
